System: Amine oxidase [flavin-containing] A (Homo sapiens, UniProt P21397) | Read-out: pKi | Origin: multiple publications
pKi: −log10 of the molar value.
Measured property: pKi

# annotated cases, reported pKi shown
Compound	Val
CNC(=O)COC[C@@H]1CC(c2ccc(-c3ccc(N4C[C@H](Cn5ccnn5)OC4=O)cc3F)cn2)=NO1	5.10
COC(=O)NC[C@H]1CN(c2cc(F)c3c(c2)CC(=O)N3C)C(=O)O1	3.14
CN(CC(=O)NC1CC1)[C@H]1C[C@@H]1c1ccccc1 (relative stereo)	4.13
O=C(NC[C@H]1CN(c2ccc([C@H]3CC[S@@+]([O-])CC3)c(F)c2)C(=O)O1)C1CC1	3.13
CC(=O)NC[C@H]1CN(c2ccc([C@H]3CC[S@@+]([O-])CC3)c(F)c2)C(=O)O1	3.19

(I) O=C1O[C@@H](Cn2ccnn2)CN1c1ccc(-c2ccc(C(O)CO)nc2)c(F)c1 (some centres unmarked)
(II) O=C1O[C@@H](CNC(=S)c2ccco2)CN1c1ccc(N2CCOCC2)c(F)c1
Recorded pKi values differ for I and II ; which one is higher? // caller expects the label of the chosen entry I
(I: 4.32, II: 3.77)
